The values you see were collected from ChEMBL document CHEMBL1148725.

System: L1210
Assay overview: Antitumor activity in L1210 cells xenografted B6D2F1 mouse at 10 mg/kg, ip relative to control
Assay type: functional
Measurement conditions: route intraperitoneal
Value kind: Activity (%)
One number for each entry, in %.

Some compounds with recorded Activity:
CCOC(=O)CC(=O)Nc1cc2c3c(cccc3c1)C(=O)N(CCN(C)C)C2=O    129
CN(C)CCN1C(=O)c2cccc3cc(/N=C\c4cc(O)ccc4O)cc(c23)C1=O    151
CN(C)CCN1C(=O)c2cccc3cc(NC(=O)NC(=O)C(Cl)(Cl)Cl)cc(c23)C1=O    197
CN(C)CCN1C(=O)c2cccc3cc(NC(=O)Cc4ccc(Cl)cc4)cc(c23)C1=O    200

// for each compound below, give its Activity
1. CN(C)CCN1C(=O)c2cccc3cc(N)cc(c23)C1=O.Cl
2. CN(C)CCN1C(=O)c2cccc3cc(N)cc(c23)C1=O [AMONAFIDE]
3. CN(C)CCN1C(=O)c2cccc3cc(/N=C\c4ccc5c(c4)OCO5)cc(c23)C1=O
4. CN(C)CCN1C(=O)c2cccc3cc(/N=C\c4cc5c(cc4[N+](=O)[O-])OCO5)cc(c23)C1=O
5. COc1ccc(CC(=O)Nc2cc3c4c(cccc4c2)C(=O)N(CCN(C)C)C3=O)cc1
6. CC(=O)Nc1cc2c3c(cccc3c1)C(=O)N(CCN(C)C)C2=O

1. 120
2. 122
3. 115
4. 215
5. 107
6. 149

###

Assay overview: Toxicity in ip dosed B6D2F1 mouse
Assay type: organism-based
Measurement conditions: in vivo
Value kind: MTD

CN(C)CCN1C(=O)c2cccc3cc(NC(=O)NC(=O)CCl)cc(c23)C1=O    20 mg/kg
COc1cc(/C=N\c2cc3c4c(cccc4c2)C(=O)N(CCN(C)C)C3=O)cc(OC)c1OC    > 80 mg/kg
CN(C)CCN1C(=O)c2cccc3cc(NCc4ccc5c(c4)OCO5)cc(c23)C1=O.Cl    > 80 mg/kg
CN(C)CCN1C(=O)c2cccc3cc(NC(=O)Nc4ccc(OC(F)(F)F)cc4)cc(c23)C1=O    > 80 mg/kg
CN(C)CCN1C(=O)c2cccc3cc(NC(=O)NC(=O)C(Cl)(Cl)Cl)cc(c23)C1=O    > 160 mg/kg
CCOC(=O)c1ccc(NC(=O)Nc2cc3c4c(cccc4c2)C(=O)N(CCN(C)C)C3=O)cc1    > 80 mg/kg
CN(C)CCN1C(=O)c2cccc3cc(NC(=S)NCc4ccc5c(c4)OCO5)cc(c23)C1=O    > 80 mg/kg
CN(C)CCN1C(=O)c2cccc3cc(NCc4ccccc4O[C@H]4O[C@H](CO)[C@@H](O)[C@H](O)[C@H]4O)cc(c23)C1=O    > 80 mg/kg
CC(=O)Nc1cc2c3c(cccc3c1)C(=O)N(CCN(C)C)C2=O    40 mg/kg
CN(C)CCN1C(=O)c2cccc3cc(NC(=O)c4ccccc4)cc(c23)C1=O    40 mg/kg

Please supply MTD for each of the following items, keeping them in order.
1. CN(C)CCN1C(=O)c2cccc3cc(/N=C\c4ccc(C#N)cc4)cc(c23)C1=O
2. CN(C)CCN1C(=O)c2cccc3cc(NC(=S)Nc4ccc(C#N)cc4)cc(c23)C1=O

["> 80 mg/kg", "> 80 mg/kg"]

###

Assay overview: Antiproliferative activity against Hs683 cells after 72 hrs by MTT assay
Assay type: functional, cell-based, Homo sapiens, Hs 683
Measurement conditions: Homo sapiens, Hs 683, 72 h
Value kind: pIC50
Answers are plain numbers, as −log10 of the molar value.

CN(C)CCN1C(=O)c2cccc3cc(NC(=O)Nc4ccc(C#N)cc4)cc(c23)C1=O    5.30

List pIC50 for every entry below, keeping the order given.
1. CN(C)CCN1C(=O)c2cccc3cc(N)cc(c23)C1=O.Cl
2. CN(C)CCN1C(=O)c2cccc3cc(NC=O)cc(c23)C1=O

1. 5.33
2. 5.32

# batch size: 3; output pIC50 per entry
1. CCOC(=O)NC(=O)Nc1cc2c3c(cccc3c1)C(=O)N(CCN(C)C)C2=O
2. CN(C)CCN1C(=O)c2cccc3cccc(c23)C1=O
3. CN(C)CCN1C(=O)c2cccc3cc([N+](=O)[O-])cc(c23)C1=O [MITONAFIDE]

[5.44, 5.16, 5.43]

Would you mind giving pIC50 for every compound in the list below?
1. CN(C)CCN1C(=O)c2cccc3cc(NC(=O)NC(=O)CCl)cc(c23)C1=O
2. CN(C)CCN1C(=O)c2cccc3cc(NC(=O)Nc4cc5c6c(cccc6c4)C(=O)N(CCN(C)C)C5=O)cc(c23)C1=O
3. CN(C)CCN1C(=O)c2cccc3cc(NC(=O)Nc4ccc5c(c4)OCO5)cc(c23)C1=O

5.52
5.30
5.24

###

Assay overview: Toxicity in ip dosed B6D2F1 mouse
Type: organism-based
Measurement conditions: in vivo
Value kind: MTD (mg/kg)
Numbers only, in mg/kg.

Batch of 2 molecules: report MTD for each.
1. CN(C)CCN1C(=O)c2cccc3cc(NC(=O)NC(=O)c4ccccc4)cc(c23)C1=O
2. CN(C)CCN1C(=O)c2cccc3cccc(c23)C1=O

1. 40
2. 40

Hi, could you look up MTD for each item in my list?
1. CN(C)CCN1C(=O)c2cccc3cc([N+](=O)[O-])cc(c23)C1=O [MITONAFIDE]
2. CN(C)CCN1C(=O)c2cccc3cc(NC(=O)Nc4cc5c6c(cccc6c4)C(=O)N(CCN(C)C)C5=O)cc(c23)C1=O

1. 40
2. 40

###

Assay overview: Antiproliferative activity against U373MG cells after 72 hrs by MTT assay
Assay type: functional, cell-based, Homo sapiens, U-373MG ATCC
Measurement conditions: Homo sapiens, U373 MG, 72 h
For each entry below, report its pIC50 value.
Numbers only, as −log10 of the molar value.

Below are worked cases with known answers.
CN(C)CCN1C(=O)c2cccc3cccc(c23)C1=O    5.12
CN(C)CCN1C(=O)c2cccc3cc(NC(=O)Nc4ccc(Cl)cc4)cc(c23)C1=O    5.44
CCOC(=O)c1ccc(NC(=O)Nc2cc3c4c(cccc4c2)C(=O)N(CCN(C)C)C3=O)cc1    5.68
CN(C)CCN1C(=O)c2cccc3cc(NC(=S)Nc4ccc(OC(F)(F)F)cc4)cc(c23)C1=O    5.44
COC(=O)Nc1cc2c3c(cccc3c1)C(=O)N(CCN(C)C)C2=O    5.38

For each listed entry, give its pIC50.
1. CN(C)CCN1C(=O)c2cccc3cc(NC(=O)Cc4ccc(Cl)cc4)cc(c23)C1=O
2. CCOC(=O)NC(=O)Nc1cc2c3c(cccc3c1)C(=O)N(CCN(C)C)C2=O
3. CN(C)CCN1C(=O)c2cccc3cc(NC(=O)NC(=O)CCl)cc(c23)C1=O

[5.24, 5.39, 5.48]

Hi, could you look up pIC50 for each item in my list?
1. CN(C)CCN1C(=O)c2cccc3cc(NC(=O)NCCCl)cc(c23)C1=O
2. CN(C)CCN1C(=O)c2cccc3cc(/N=C\c4ccc(C#N)cc4)cc(c23)C1=O

6.00
5.38

###

Assay overview: Antiproliferative activity against U373MG cells after 72 hrs by MTT assay
Type: functional, cell-based, Homo sapiens, U-373MG ATCC
Measurement conditions: Homo sapiens, U373 MG, 72 h
Value kind: pIC50
Numbers only, as −log10 of the molar value.

I would be grateful if you could provide pIC50 for each of the following entries.
1. CN(C)CCN1C(=O)c2cccc3cc([N+](=O)[O-])cc(c23)C1=O [MITONAFIDE]
2. CN(C)CCN1C(=O)c2cccc3cc(/N=C\c4cc(O)ccc4O)cc(c23)C1=O.Cl
3. CC(=O)Nc1cc2c3c(cccc3c1)C(=O)N(CCN(C)C)C2=O
4. CN(C)CCN1C(=O)c2cccc3cc(NC(=S)Nc4ccc(C#N)cc4)cc(c23)C1=O

1. 5.89
2. 5.33
3. 5.05
4. 5.03

###

Assay overview: Toxicity in ip dosed B6D2F1 mouse
Type: organism-based
Measurement conditions: in vivo
Value kind: MTD

Field: example entries. Status: answers known.
CN(C)CCN1C(=O)c2cccc3cc(NC(=O)CCCCl)cc(c23)C1=O    > 80 mg/kg
CN(C)CCN1C(=O)c2cccc3cc(NC(=O)C(F)(F)F)cc(c23)C1=O    40 mg/kg
CN(C)CCN1C(=O)c2cccc3cc(NC(=O)Nc4ccc5c(c4)OCO5)cc(c23)C1=O    > 80 mg/kg

Can you give me MTD for all of these, one by one?
1. CN(C)CCN1C(=O)c2cccc3cc(/N=C\c4cc5c(cc4[N+](=O)[O-])OCO5)cc(c23)C1=O
2. CN(C)CCN1C(=O)c2cccc3cc(NCc4ccccc4O[C@H]4O[C@H](CO)[C@@H](O)[C@H](O)[C@H]4O)cc(c23)C1=O.Cl

> 160 mg/kg
> 80 mg/kg

Which MTD value is on record for CN(C)CCN1C(=O)c2cccc3cc(NC(=S)Nc4ccc(OC(F)(F)F)cc4)cc(c23)C1=O ?
40 mg/kg
